Values from patent US9090593B2

# maps each entry to its IC50
test-target: full length recombinant Pim-1 protein (Homo sapiens, UniProt P11309)
Construct: by full length recombinant Pim-1, Pim-2, or Pim-3 protein; hexahistidine tag followed by a thrombin cleavage site (N); made in house; host or cells: Sf9 (baculovirus) or E. coli (pET28)
Sequence (P11309 whole entry): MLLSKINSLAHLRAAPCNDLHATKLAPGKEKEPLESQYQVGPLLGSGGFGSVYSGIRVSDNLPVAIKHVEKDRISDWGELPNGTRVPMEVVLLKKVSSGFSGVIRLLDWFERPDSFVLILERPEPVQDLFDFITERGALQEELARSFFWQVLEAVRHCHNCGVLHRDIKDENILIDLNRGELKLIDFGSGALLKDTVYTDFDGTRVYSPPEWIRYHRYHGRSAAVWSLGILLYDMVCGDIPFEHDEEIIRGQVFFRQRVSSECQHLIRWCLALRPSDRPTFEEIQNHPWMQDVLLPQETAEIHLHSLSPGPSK
test: Pim-1 enzyme assay (HTRF, phosphorylation of biotinylated-BAD (S112) peptide)
Format: biochemical
condition: enzyme assay, Pim-1; read-out: Pim_1_IC50

{"compound": "NC1CCN(c2cncc(-c3n[nH]c4ccc(N5CCCCC5=O)cc34)n2)CC1 [Example 91]", "IC50 / nM": 629}
{"compound": "Fc1cccc(F)c1-c1ccc2[nH]cc(-c3cncc(NC4CCCCC4)n3)c2c1 [Example 202]", "IC50 / nM": 21}
{"compound": "Fc1cccc(F)c1-c1ccc2[nH]cc(-c3cncc(NC4CCCNC4)c3)c2n1 (centres unmarked) [Example 33]", "IC50 / nM": 26}
{"compound": "CCN(CC)C(=O)c1cccc(-c2ccc3[nH]nc(-c4cncc(N5CCC(N)CC5)n4)c3c2)c1F [Example 47]", "IC50 / nM": 43}
{"compound": "N#Cc1cccc(-c2ccc3[nH]nc(-c4cncc(N5CCC(N)CC5)n4)c3c2)c1 [Example 62]", "IC50 / nM": 11}
{"compound": "Oc1nccc(-c2ccc3[nH]nc(-c4cncc(O[C@@H]5CCCNC5)n4)c3c2)n1 [Example 155]", "IC50 / nM": 36}
{"compound": "NC1CCCN(c2cncc(-c3c[nH]c4ccc(-c5c(F)cccc5F)cc34)n2)C1 (centres unmarked) [Example 21]", "IC50 / nM": 3}
{"compound": "N[C@@H]1CCCN(c2cncc(-c3c[nH]c4ccc(-c5c(F)cccc5F)cc34)n2)C1 [Example 203]", "IC50 / nM": 8}
{"compound": "NC1CCN(c2cncc(-c3n[nH]c4ccc(-c5cc(C(=O)Nc6ccccc6)ccc5F)cc34)n2)CC1 [Example 45]", "IC50 / nM": 12}
{"compound": "Nc1cc(-c2ccc3[nH]nc(-c4cncc(N5CCC(N)CC5)n4)c3c2)ccc1N1CCOCC1 [Example 105]", "IC50 / nM": 2}
{"compound": "CC(C)Oc1cncc(-c2ccc3[nH]cc(-c4cccc(-n5cccn5)n4)c3c2)n1 [Example 223]", "IC50 / nM": 142}
{"compound": "CC(C)Oc1cncc(-c2ccc3[nH]cc(-c4cccc(OC(C)C)n4)c3c2)n1 [Example 226]", "IC50 / nM": 2200}
{"compound": "CC(C)Oc1cncc(-c2ccc3[nH]cc(-c4cncc(N(C)C)n4)c3c2)n1 [Example 230]", "IC50 / nM": 89}
{"compound": "CC(C)c1ccnc(-c2ccc3[nH]nc(-c4cncc(O[C@@H]5CCCNC5)n4)c3c2)n1 [Example 126]", "IC50 / nM": 13}
{"compound": "O=C(NC1CC1)c1ccnc(-c2ccc3[nH]nc(-c4cncc(O[C@@H]5CCCNC5)n4)c3c2)c1 [Example 157]", "IC50 / nM": 12}
{"compound": "CC(C)Oc1nccc(-c2ccc3[nH]nc(-c4cncc(O[C@@H]5CCCNC5)n4)c3c2)n1 [Example 153]", "IC50 / nM": 12}
{"compound": "O=C1CN(c2cncc(-c3c[nH]c4ccc(-c5c(F)cccc5F)cc34)n2)CCN1 [Example 204]", "IC50 / nM": 80}
{"compound": "CC(C)(C)NC(=O)c1ccc(F)c(-c2ccc3[nH]nc(-c4cncc(N5CCC(N)CC5)n4)c3c2)c1 [Example 37]", "IC50 / nM": 13}
{"compound": "NC1CCN(c2cncc(-c3n[nH]c4ccc(-c5cccnc5)cc34)n2)CC1 [Example 82]", "IC50 / nM": 1}
{"compound": "CCN(CC)C(=O)c1ccc(F)c(-c2ccc3[nH]nc(-c4cncc(N5CCC(N)CC5)n4)c3c2)c1 [Example 46]", "IC50 / nM": 20}
{"compound": "COc1cccc(-c2ccc3[nH]nc(-c4cncc(N5CCC(N)CC5)n4)c3c2)c1F [Example 4]", "IC50 / nM": 2}
{"compound": "CC(C)Oc1cncc(-c2ccc3[nH]cc(-c4cncc(N5CCOCC5)n4)c3c2)n1 [Example 225]", "IC50 / nM": 77}
{"compound": "CC(C)(C)Nc1cncc(-c2n[nH]c3ccc(-c4c(F)cccc4F)cc23)n1 [Example 183]", "IC50 / nM": 44}
{"compound": "FC(F)(F)Oc1cccc(-c2ccc3[nH]nc(-c4cncc(O[C@@H]5CCCNC5)n4)c3c2)c1 [Example 150]", "IC50 / nM": 35}
{"compound": "NC1CCN(c2cncc(-c3n[nH]c4ccc(-c5cnc6[nH]ccc6c5)cc34)n2)CC1 [Example 57]", "IC50 / nM": 1}
{"compound": "NC1CCN(c2cncc(-c3n[nH]c4ccc(-c5cc(C(=O)N6CCOCC6)ccc5F)cc34)n2)CC1 [Example 42]", "IC50 / nM": 32}
{"compound": "C1=C(c2ccc3[nH]nc(-c4cncc(O[C@@H]5CCCNC5)n4)c3c2)COCC1 [Example 154]", "IC50 / nM": 15}
{"compound": "Fc1cccc(F)c1-c1ccc2[nH]cc(-c3nccc(OC4CCNCC4)n3)c2c1 [Example 211]", "IC50 / nM": 86}
{"compound": "COc1cc(-c2ccc3[nH]nc(-c4cncc(N5CCC(N)CC5)n4)c3c2)nc(OC)n1 [Example 9]", "IC50 / nM": 4}
{"compound": "CN(C)c1cncc(-c2n[nH]c3ccc(-c4c(F)cccc4F)cc23)n1 [Example 181]", "IC50 / nM": 206}
{"compound": "Nc1cccnc1-c1ccc2[nH]nc(-c3cncc(N4CCC(N)CC4)n3)c2c1 [Example 94]", "IC50 / nM": 86}
{"compound": "CC(C)Oc1cc(-c2ccc3[nH]nc(-c4cncc(O[C@@H]5CCCNC5)n4)c3c2)ccn1 [Example 143]", "IC50 / nM": 5}
